- System: MCF7 breast
- Experiment notes: NCI-60 one-dose screen, 48 h
- Condition info: 10 µM unless noted
The panel holds about 83,000 compounds, 20% with a hit somewhere; the sample as a whole holds those more often. The source made the active and inactive calls. Rule for the calls: active = growth percent below 10; inactive = the rest.
Outcome codes: active, inactive

Compound	Discrete label
O=C1C(=O)/C(=C/c2ccccc2)CCCCCC/C1=C/c1ccccc1	active
O=C(CSc1nnc(-c2cc(-c3ccccc3)nc3ccccc23)o1)c1ccc(Br)cc1	inactive
Cc1ccc2nc(SCC(=O)Nc3ccc(-c4nc5ccccc5s4)c(Cl)c3)[nH]c2c1	inactive
O=C1OC(Oc2ccccc2)(c2ccccc2)c2ccccc21 (stereo not drawn)	inactive
COc1ccc(C2=NN(C=O)C(c3cccc(Nc4ccnc5cc(Cl)ccc45)c3)C2)cc1 (stereo not drawn)	inactive
O=C(CC1Sc2ccccc2NC1=O)NNc1cccc(Cl)c1Cl (stereo not drawn)	inactive
COc1ccc2nc(-c3ccc(Cl)cc3)cc(-c3nnc(SCC(=O)Nc4ccc(C(C)=O)cc4)n3-c3ccccc3)c2c1	inactive
O=C(Nc1nn2c(-c3cc(C(F)(F)F)cc(C(F)(F)F)c3)nnc2s1)C1CCCC1	active
CCCCOP(=O)(OCCCC)C(C(=O)OCC)C(CC(=O)OCC)C(=O)OCC (stereo not drawn)	inactive
CCOc1cc(/C=C/C(=O)C(C(=O)/C=C/c2ccc(OC(=O)CNc3nc4ccccc4[nH]3)c(OCC)c2)C(=O)CNc2nc3ccccc3[nH]2)ccc1OC(=O)CNc1nc2ccccc2[nH]1	active
O=C(NN1C(=O)c2cc(C(=O)O)c(C(=O)O)cc2C1=O)c1ccncc1	inactive
Clc1ccc2nc(CI)c(CI)nc2c1	inactive
CCNCCCn1c2c(c3ccc(F)cc3c1=O)C(=O)c1cc(OC)cnc1-2	active
c1ccc(-c2n(Cc3ccc4ccccc4c3)cc[n+]2Cc2ccc3ccccc3c2)cc1	active
O=C1N=C(N2CCOCC2)S/C1=C\c1cn(-c2ccccc2)nc1-c1ccccc1	inactive
COc1ccc([N+](=O)[O-])c(S(=O)(=O)c2ccc(Cl)cc2)n1	inactive
Fc1ccccc1C1c2ccccc2-c2nccn21 (stereo not drawn)	inactive
COc1ccc(-c2nc3sc4c(c3c(=O)[nH]2)CCCCCC4)cc1	inactive
CCSc1ncc(Br)c(Sc2nc(N)nc3nc[nH]c23)n1	inactive
COc1ccc(C2=NN(C(C)=O)C(c3cccc(Nc4ccnc5cc(Cl)ccc45)c3)C2)cc1 (stereo not drawn)	inactive
O=C1/C(=C/c2ccccc2O)C(=S)SN1Cc1ccco1	inactive
C[C@H]1O[C@@H](O[C@H]2[C@@H](O)C[C@H](O[C@H]3[C@@H](O)C[C@H](O[C@H]4CC[C@]5(C)C6C[C@@H](O)[C@]7(C)[C@@H](C8=CC(=O)OC8)CC[C@]7(O)C6CC[C@@H]5C4)O[C@@H]3C)O[C@@H]2C)C[C@H](O)[C@@H]1O (stereo partly drawn)	active
CC(=O)N1N=C(c2ccc(C(F)(F)F)cc2)CC1c1ccc2c(c1)OCO2 (stereo not drawn)	inactive
C/C(=C\CCc1ccoc1)CC/C=C(\C)CCCNc1ccc(F)cc1	inactive
CC[C@@H](c1ccc(O)c(O)c1)[C@@H](CC)c1ccc(O)c(O)c1	inactive
Cc1cc(C)c2c(N)c3cccc(C)c3nc2n1	active
COc1cc(/C=C/C(=O)C(C(=O)/C=C/c2ccc(OC(=O)CCNc3nnc(C)s3)c(OC)c2)C(=O)CCNc2nnc(C)s2)ccc1OC(=O)CCNc1nnc(C)s1	active
COc1ccc2c(c1)C(=Nc1cc(OC)c(OC)c(OC)c1)C(=O)N2	inactive
NC(=O)c1cc(Br)cc(Br)c1NS(=O)(=O)c1ccccc1	inactive
CC(C)C[C@H](NC(=O)/C=C/Cn1ccc2ccccc2c1=O)B(O)O	inactive
O=C(Oc1ccccc1)C(Br)C(Br)c1ccccc1 (stereo not drawn)	inactive
c1ccc2nc(Cn3c[n+](Cc4ccc5ccccc5n4)c4ccccc43)ccc2c1	inactive
O=C(CNC(=O)c1cccc2ccccc12)Nc1ccccc1Cc1ccccc1	inactive
O=C1NC(=S)S/C1=C\c1cc(Br)ccc1O	inactive
COC(=O)Nc1ccc2ccc3c(NC(=O)OC)ccc4ccc1c2c43 (tested in a mixture with another compound)	inactive
O=c1c2ccccc2c2nccn2c2cc(Cl)ccc12	inactive
CN[C@@H]1C(OC2[C@H](O[C@H]3[C@H](O)[C@@H](O)[C@H](N=C(N)N)[C@@H](O)[C@@H]3N=C(N)N)OC(C)[C@]2(O)CO)OC(CO)C(O)C1O (stereo partly drawn)	inactive
O=C1C2C(C(=O)N1CC[Se][Se]CCN1C(=O)C3C(C1=O)[C@H]1C=C[C@@H]3C1)[C@H]1C=C[C@@H]2C1 (stereo partly drawn)	active
